This listing pairs molecules with measured hemolysis at 1 h, 200 µM.
- Assay notes: Hemolytic activity against sheep blood assessed as blood cell lysis at 200 uM incubated for 1 hr by UV-visible spectrophotometry
- Format: ADME, tissue-based, Ovis aries
- Condition: sheep blood cells, read-out: Activity
Measurement label: hemolysis at 1 h, 200 µM (%)

- Given smiles: "Cl.Nc1nccc(-c2cccc(NC(=O)c3cc(Br)cc(Br)c3)c2)n1"
  Value measured: 3.4
- Given smiles: "Cl.Nc1nccc(-c2cccc(NC(=O)c3cc(Cl)cc(Cl)c3)c2)n1"
  Value measured: 5
